Tested on: SNB-75 CNS
Method Notes: NCI tumour cell line growth inhibition, 48 h
Parameter threshold = 40 µM. Response is label 1 when TGI meets or exceeds it, else label 0.

Example cases with answers are listed next.
Compound | Category Label
CC(=O)Nc1ncc2c(n1)-c1ccccc1OC2 | label 1
COc1cc2cc3c4c(cc(OC)c(OC)c4c2cc1OC)CCN3C(=O)OCCBr | label 1
O=C(O)c1ccc(Nc2cnc3ccc(C(F)(F)F)cc3n2)cc1 | label 0
Cc1c(-c2coc(-c3ccc(Cl)cc3)n2)c(=O)n(-c2ccccc2)n1C | label 1

Determine whether this compound has TGI no lower than 40 µM: CN(C)CCn1c(=O)c2ccc(NCCNCCO)c3c(=O)c4cc(O)ccc4n(c1=O)c23
label 0

Decide: is the reported value of TGI for O=C(NCCCCl)c1c(O)c2ccccc2[nH]c1=O equal to or greater than 40 µM?
label 1

Form field: TGI at least 40 µM? Entry: Cc1[nH]c(=O)nc(N/N=C/c2ccc(O)cc2)c1C(=O)Nc1ccc(Cl)cc1
label 1

Identify whether the reported TGI of the following compound is 40 µM or greater: C=C1C(=O)C[C@@]23CCC[C@@]12CC(O)C3 (some centres not stated)
label 1

Decide: TGI of CCCCCCN1C(=O)CN=C1Nc1ccc2cc3ccc(NC4=NCC(=O)N4CCCCCC)cc3nc2c1 >= 40 µM?
label 0

Would you say O=C1CC2Sc3ccccc3N=C2N1c1ccc(Cl)cc1Cl (configuration not stated) shows TGI at minimum 40 µM?
label 1

TGI >= 40 µM for Nc1ccc2c(c1)CN1C(=O)c3ccccc3C1=N2 ?
label 1

// inclusive: TGI at least 40 µM? input: CN(C)CCNC(=O)c1cccc2c(NC(CS)C(=O)O)c3ccccc3nc12 (configuration not stated)
label 0

# bool: TGI of Cc1cnc2[nH]c(-c3ccccc3)cc(=O)c2c1 >= 40 µM
label 1

Evaluate COC1(OC)N=C(N)C2(C#N)/C(=N/N(C)C)CC(C)C12C#N (configuration not stated) : TGI at minimum 40 µM?
label 1

----------
Test system: SNB-19 CNS
Method Notes: NCI tumour cell line growth inhibition, 48 h
Reported Endpoint: TGI

Completed entries (count: 4):
Compound | Reported Endpoint | Observed Value
O=C1c2cccc3cccc(c23)C(=O)N1CCCN1CCN(CCCN2C(=O)c3cccc4cccc(c34)C2=O)CC1 | TGI | > 100 µM
Cc1ccc(S(=O)(=O)NC(=O)NS(=O)(=O)O)cc1 | TGI | > 100 µM
CCOC(=O)NNC(=O)NC12CC3CC(CC(C3)C1)C2 | TGI | > 100 µM
CCCCCCCC(CC(=O)O)OC(=O)CC(CCCCCCC)OC1OC(C)C(O)C(O)C1OC1OC(C)C(O)C(O)C1O (stereo not given) | TGI | > 100 µM

Query (compound): Clc1ncc(C(Cl)(Cl)Cl)nc1-c1ccccc1 ; field requested: TGI
3.19 µM

----------
Test system: SF-268 CNS
Method Notes: NCI tumour cell line growth inhibition, 48 h
Could you please report measured TGI for the items listed next?
Answers are plain numbers, in µM.

Would you please look over these solved cases?
Molecule | TGI (µM)
C=CCOn1c(C=C)nc2c(C)cccc21 | 26.5
COc1cc(/C=C2\C[C@H]3[C@@H]4CC=C5C[C@@H](N6CCCC6)CC[C@]5(C)[C@H]4CC[C@]3(C)[C@H]2OC(C)=O)cc(OC)c1OC | 27.7
CC(C)n1nc(C#Cc2cccc(NC(=O)c3cccc(C(F)(F)F)c3)c2)c2c(N)ncnc21 | 10.4
CCSc1nc(N)c2cnn(C)c2n1 | 85.1
Cn1c(COC(=O)NCCN2CCOCC2)nc2c(N3CCOCC3)nc(-c3ccccc3)nc21 | 2.95

Hi there! I need TGI for each item below, if you can.
1. C=CCN1C(=O)/C(=C/c2ccc(Cl)cc2)N=C1SC1OC(COC(C)=O)C(OC(C)=O)C(OC(C)=O)C1OC(C)=O (stereo not given)
2. C=C1C(=O)O[C@H]2C(=O)[C@H](C)CCC[C@@](C)(O)/C=C\C[C@@]3(C)O[C@@H]3C[C@@H]12
3. CN(C)c1ccc(Sc2ccc3nc(N)nc(N)c3c2)cc1
4. CN1C(=O)C23CC4=CC=CC(O)C4N2C(=O)C1(CO)SS3 (stereo not given)

[5.46, 50.8, 14.3, 0.489]
